Answer each item with its documented protein stability index.
B1: PBXIP1 (parent)
chain: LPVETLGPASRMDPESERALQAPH

# Variants of: B1
# ASSAY NAME: protein stability index of a GFP-peptide fusion (GPS, HEK-293T) (PSI 1-6); higher = more stable;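 note: lentivirally expressed fusions sorted by FACS into six bins by GFP to DsRed ratio, PSI derived from sequencing read proportions per bin multiplied by bin number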
# RUN PARAMETERS: c terminus: a fixed tail appended
Form rule: numeric answer, no unit written next to it.

Looking up LPVETLGPASPMDPESERALQAPH [R11P] , I see its protein stability index listed as 3.98

Looking up LPVETLGPASRMDPESERALQFPH [A22F] , I see its protein stability index listed as 4.01

Looking up LPVETLGPASRMDPEPERALQAPH [S16P] , I see its protein stability index listed as 3.95

Looking up LPVETLGPASRMDPESERALQAWH [P23W] , I see its protein stability index listed as 3.92

Looking up LPVETLGPASRMDPESERALAAPH [Q21A] , I see its protein stability index listed as 3.93
